Reported IC50 values for a set of compounds
# TARGET OR SYSTEM: LK35.2-hPD-L1 cells / PE-labeled PD-1-Ig (Homo sapiens)
# Construct: expressed in transfected cells; host or cells: LK35.2 mouse B cell line
# Sequence (Q9NZQ7 19-290): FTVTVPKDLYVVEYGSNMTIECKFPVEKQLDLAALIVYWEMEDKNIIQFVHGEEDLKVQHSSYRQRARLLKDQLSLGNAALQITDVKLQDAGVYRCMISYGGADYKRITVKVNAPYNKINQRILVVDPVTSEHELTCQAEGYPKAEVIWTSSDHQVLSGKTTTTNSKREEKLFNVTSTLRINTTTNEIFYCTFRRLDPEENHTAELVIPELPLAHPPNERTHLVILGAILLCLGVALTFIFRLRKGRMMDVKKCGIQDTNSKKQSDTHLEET
# PROTOCOL DESCRIPTION: LK35.2-hPD-L1 cell binding high-content screening assay
# Format: cell-based
# MEASUREMENT SETUP: cluster symbol; cell line of CBA not given (LK35.2-hPD-L1 or 293T-hPD-L1); read-out: CBA IC50 cluster
Positions of bridges follow the written chain, without caps; N, C: chain ends. Non-standard residues stand in square brackets, D forms with d. Residues, ends and D or L forms follow the SMILES beside them. NMeW = CN[C@@H](Cc1c[nH]c2ccccc12)C(=O)O; Phe(4-F) = N[C@@H](Cc1ccc(F)cc1)C(=O)O; Pro(4R-NH2) = N[C@H]1CN[C@H](C(=O)O)C1; Bta = N[C@@H](Cc1csc2ccccc12)C(=O)O; cisHyp = O=C(O)[C@@H]1C[C@H](O)CN1; Hyp = O=C(O)[C@@H]1C[C@@H](O)CN1; NMeF = CN[C@@H](Cc1ccccc1)C(=O)O; NMeE = CN[C@@H](CCC(=O)O)C(=O)O; NMeNle = CCCC[C@H](NC)C(=O)O; NMeA = CN[C@@H](C)C(=O)O; Dap = NC[C@H](N)C(=O)O; Sar = CNCC(=O)O
PROPERTY MEASURED: IC50

INSERT INTO assay_data (compound, property_measured, val) VALUES
  ('CCCC[C@H]1C(=O)N(C)CC(=O)N[C@@H](CC(=O)O)C(=O)N[C@@H](C(C)C)C(=O)N(C)[C@@H](Cc2ccccc2)C(=O)N[C@@H](Cc2ccc(O)cc2)C(=O)N(C)[C@@H](CCC(=O)O)C(=O)N[C@@H](Cc2csc3ccccc23)C(=O)N[C@@H](Cc2ccc(O)cc2)C(=O)N[C@@H](CC(C)C)C(=O)N[C@H](C(=O)NCC(N)=O)CSCC(=O)N[C@@H](Cc2ccccc2)C(=O)N(C)[C@@H](Cc2ccccc2)C(=O)N1C [Example 3073] ({CH2CO}-F[NMeF][NMeNle][Sar]DV[NMeF]Y[NMeE][Bta]YLCG-NH2; thioether N-13)', 'IC50', '4.78 to 72.9 nM'),
  ('CCCC[C@H]1C(=O)N(C)[C@@H](CCCC)C(=O)N[C@@H](CCCNC(=N)N)C(=O)N[C@H](C(=O)NCC(N)=O)CSCC(=O)N[C@@H](Cc2ccc(O)cc2)C(=O)N2CCC[C@H]2C(=O)N[C@@H](CC(N)=O)C(=O)N2CCC[C@H]2C(=O)N[C@@H](Cc2cnc[nH]2)C(=O)N[C@@H](CC(C)C)C(=O)N2C[C@@H](O)C[C@H]2C(=O)N[C@@H](Cc2c[nH]c3ccccc23)C(=O)N[C@@H](CO)C(=O)N[C@@H](Cc2c[nH]c3ccccc23)C(=O)N1C [Example 1148] ({CH2CO}-YPNPHL[cisHyp]WSW[NMeNle][NMeNle]RCG-NH2; thioether N-14)', 'IC50', '4.78 to 72.9 nM'),
  ('CCCC[C@H]1C(=O)N(C)CC(=O)N[C@@H](CC(=O)O)C(=O)N[C@@H](C(C)C)C(=O)N(C)[C@@H](Cc2ccccc2)C(=O)N[C@@H](Cc2ccc(F)cc2)C(=O)N(C)CC(=O)N[C@@H](Cc2c[nH]c3ccccc23)C(=O)N[C@@H](Cc2ccc(O)cc2)C(=O)N[C@@H](CC(C)C)C(=O)N[C@H](C(=O)NCC(N)=O)CSCC(=O)N[C@@H](Cc2ccccc2)C(=O)N(C)[C@@H](Cc2ccccc2)C(=O)N1C [Example 3077] ({CH2CO}-F[NMeF][NMeNle][Sar]DV[NMeF][Phe(4-F)][Sar]WYLCG-NH2; thioether N-13)', 'IC50', '> 74.3 nM'),
  ('CC(C)C[C@@H]1NC(=O)[C@@H](Cc2c[nH]cn2)NC(=O)[C@@H]2CCCN2C(=O)[C@@H](CC(N)=O)NC(=O)C(C)N(C)C(=O)[C@H](Cc2ccc(O)cc2)NC(=O)CSC[C@H](C(=O)NCC(N)=O)NC(=O)[C@H](C)NC(=O)[C@@H](CC(=O)O)N(C)C(=O)[C@@H](CCCCN)N(C)C(=O)[C@H](Cc2c[nH]c3ccccc23)NC(=O)[C@H](CO)NC(=O)[C@@H](Cc2c[nH]c3ccccc23)NC(=O)C2C[C@@H](O)CN2C1=O (some centres unmarked)', 'IC50', '> 74.3 nM'),
  ('CCCC[C@H]1C(=O)N(C)CC(=O)N[C@@H](CC(=O)O)C(=O)N[C@@H](C(C)C)C(=O)N(C)[C@@H](Cc2ccccc2)C(=O)N2C[C@H](N)C[C@H]2C(=O)N2CCC[C@@H]2C(=O)N[C@@H](Cc2c[nH]c3ccccc23)C(=O)N[C@@H](Cc2ccc(O)cc2)C(=O)N[C@@H](CC(C)C)C(=O)N[C@H](C(=O)NCC(N)=O)CSCC(=O)N[C@@H](Cc2ccccc2)C(=O)N(C)[C@@H](Cc2ccccc2)C(=O)N1C [Example 3178] ({CH2CO}-F[NMeF][NMeNle][Sar]DV[NMeF][Pro(4R-NH2)][dP]WYLCG-NH2; thioether N-13)', 'IC50', '4.78 to 72.9 nM'),
  ('CCCC[C@H]1C(=O)N(C)[C@@H](CCCC)C(=O)N[C@@H](CN)C(=O)N[C@H](C(=O)NCC(N)=O)CSCC(=O)N[C@@H](Cc2ccc(O)cc2)C(=O)N(C)[C@@H](C)C(=O)N[C@@H](CC(N)=O)C(=O)N2CCC[C@H]2C(=O)N[C@@H](CN)C(=O)N[C@@H](CCC(=O)O)C(=O)N2C[C@H](O)C[C@H]2C(=O)N[C@@H](Cc2c[nH]c3ccccc23)C(=O)N[C@@H](CO)C(=O)N[C@@H](Cc2csc3ccccc23)C(=O)N1C [Example 1162] ({CH2CO}-Y[NMeA]NP[Dap]E[Hyp]WS[Bta][NMeNle][NMeNle][Dap]CG-NH2; thioether N-14)', 'IC50', '0.158 to 4.71 nM'),
  ('CCCC[C@H]1C(=O)N(C)[C@@H](CCCC)C(=O)N[C@@H](CCCNC(=N)N)C(=O)N[C@H](C(=O)NCC(N)=O)CSCC(=O)N[C@@H](Cc2ccc(O)cc2)C(=O)N(C)[C@@H](C)C(=O)N[C@@H](CC(N)=O)C(=O)N2CCC[C@H]2C(=O)N[C@@H](CN)C(=O)N[C@@H](CC(C)C)C(=O)N2CCC[C@H]2C(=O)N[C@@H](Cc2c[nH]c3ccccc23)C(=O)N[C@@H](CO)C(=O)N[C@@H](Cc2c[nH]c3ccccc23)C(=O)N1C [Example 1113] ({CH2CO}-Y[NMeA]NP[Dap]LPWSW[NMeNle][NMeNle]RCG-NH2; thioether N-14)', 'IC50', '0.158 to 4.71 nM'),
  ('CCCC[C@H]1C(=O)N[C@@H](CCCNC(=N)N)C(=O)N[C@H](C(=O)NCC(N)=O)CSCC(=O)N[C@@H](Cc2ccccc2)C(=O)N(C)[C@@H](C)C(=O)N[C@@H](CC(N)=O)C(=O)N2CCC[C@H]2C(=O)N[C@@H](Cc2cnc[nH]2)C(=O)N[C@@H](CC(C)C)C(=O)N(C)CC(=O)N[C@@H](Cc2c[nH]c3ccccc23)C(=O)N[C@@H](CO)C(=O)N(C)[C@@H](Cc2c[nH]c3ccccc23)C(=O)N(C)[C@@H](CCCC)C(=O)N1C [Example 1031] ({CH2CO}-F[NMeA]NPHL[Sar]WS[NMeW][NMeNle][NMeNle]RCG-NH2; thioether N-14)', 'IC50', '> 74.3 nM');

* * *

Reported pIC50 values for a set of compounds
# TARGET OR SYSTEM: Human PD-L1/PD-1 (Homo sapiens, UniProt Q9NZQ7)
# Construct: made in house; host or cells: HEK293T
# Sequence (Q9NZQ7 with tags, fused parts or gaps): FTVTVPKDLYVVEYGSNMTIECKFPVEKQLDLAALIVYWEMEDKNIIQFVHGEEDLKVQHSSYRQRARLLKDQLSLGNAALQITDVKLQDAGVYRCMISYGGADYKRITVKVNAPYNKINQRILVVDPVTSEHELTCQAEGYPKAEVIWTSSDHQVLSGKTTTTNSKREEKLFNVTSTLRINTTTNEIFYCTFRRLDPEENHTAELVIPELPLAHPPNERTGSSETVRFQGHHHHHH
# PROTOCOL DESCRIPTION: HTRF PD-1-Ig/PD-L1-His binding assay (human PD-L1)
# MEASUREMENT SETUP: cluster symbol; read-out: HTRF IC50 cluster
pIC50: −log10 of the molar value. Positions of bridges follow the written chain, without caps; N, C: chain ends. Non-standard residues stand in square brackets, D forms with d. Residues, ends and D or L forms follow the SMILES beside them. Phe(3,4-(OMe)2) = COc1ccc(C[C@H](N)C(=O)O)cc1OC; NMeF = CN[C@@H](Cc1ccccc1)C(=O)O; AllylGly = C=CC[C@H](N)C(=O)O; NMeNle = CCCC[C@H](NC)C(=O)O; NMeA = CN[C@@H](C)C(=O)O; Dap = NC[C@H](N)C(=O)O; Sar = CNCC(=O)O
PROPERTY MEASURED: pIC50

INSERT INTO measurements (compound, val) VALUES
  ('CCCC[C@H]1C(=O)N(C)CC(=O)N[C@@H](CC(=O)O)C(=O)N[C@@H](C(C)C)C(=O)N(C)[C@@H](Cc2ccccc2)C(=O)N[C@@H](Cc2ccc(O)cc2)C(=O)N(C)CC(=O)N[C@@H](Cc2c[nH]c3ccccc23)C(=O)N[C@@H](Cc2ccc(O)cc2)C(=O)N[C@@H](CC(C)C)C(=O)N[C@H](C(=O)NCC(N)=O)CSCC(=O)N[C@@H](Cc2ccc(OC)c(OC)c2)C(=O)N(C)[C@@H](Cc2ccccc2)C(=O)N1C [Example 3102] ({CH2CO}-[Phe(3,4-(OMe)2)][NMeF][NMeNle][Sar]DV[NMeF]Y[Sar]WYLCG-NH2; thioether N-13)', '< 7.52'),
  ('C=CC[C@@H]1NC(=O)[C@H](Cc2c[nH]c3ccccc23)NC(=O)[C@@H]2CCCN2C(=O)[C@H](CC(C)C)NC(=O)[C@H](Cc2cnc[nH]2)NC(=O)[C@@H]2CCCN2C(=O)[C@H](CC(N)=O)NC(=O)[C@H](C)N(C)C(=O)[C@H](Cc2ccc(O)cc2)NC(=O)CSC[C@@H](C(=O)NCC(N)=O)NC(=O)[C@H](C)NC(=O)[C@H](CCCC)N(C)C(=O)[C@H](CCCC)N(C)C(=O)[C@H](Cc2c[nH]c3ccccc23)NC1=O [Example 7020] ({CH2CO}-Y[NMeA]NPHLPW[AllylGly]W[NMeNle][NMeNle]ACG-NH2; thioether N-14)', '8.17 to 9.41'),
  ('CCCC[C@H]1C(=O)N(C)[C@@H](CCCC)C(=O)N[C@@H](CCCNC(=N)N)C(=O)N[C@H](C(=O)NCC(N)=O)CSCC(=O)N[C@@H](Cc2ccccc2)C(=O)N(C)[C@@H](C)C(=O)N[C@@H](CC(N)=O)C(=O)N2CCC[C@H]2C(=O)N[C@@H](CN)C(=O)N[C@@H](CC(C)C)C(=O)N(C)CC(=O)N[C@@H](Cc2c[nH]c3ccccc23)C(=O)N[C@@H](CO)C(=O)N[C@@H](Cc2c[nH]c3ccccc23)C(=O)N1C [Example 1060] ({CH2CO}-F[NMeA]NP[Dap]L[Sar]WSW[NMeNle][NMeNle]RCG-NH2; thioether N-14)', '7.52 to 8.17'),
  ('CCCC[C@H]1C(=O)N(C)CC(=O)N[C@@H](CC(=O)O)C(=O)N[C@@H]([C@@H](C)OC)C(=O)N(C)[C@@H](Cc2ccccc2)C(=O)N[C@@H](Cc2ccc(O)cc2)C(=O)N(C)CC(=O)N[C@@H](Cc2c[nH]c3ccccc23)C(=O)N[C@@H](Cc2ccc(O)cc2)C(=O)N[C@@H](CC(C)C)C(=O)N[C@H](C(=O)NCC(N)=O)CSCC(=O)N[C@@H](Cc2ccccc2)C(=O)N(C)[C@@H](Cc2ccccc2)C(=O)N1C [Example 3157] ({CH2CO}-F[NMeF][NMeNle][Sar]DT(Me)[NMeF]Y[Sar]WYLCG-NH2; thioether N-13)', '7.52 to 8.17');
